All values here come from ChEMBL document CHEMBL1152260.

# IC50 annotations
# assay explanation: Displacement of [3H]17-PGA from Hsp90 by SPA
Just the number in µM, nothing appended.

Some solved entries appear below for comparison.
// field: IC50; key: O=C(c1ccc(O)cc1O)n1cccc1 ; value = 1.7

// field: IC50; key: COC(=O)c1ccc(C)c(C2CCCN2C(=O)c2cc(Cl)c(O)cc2O)c1 (configuration not stated) ; value = 0.3

// field: IC50; key: O=C(c1ccc(O)cc1O)N1CCCC1c1ccccc1Cl (configuration not stated) ; value = 0.08

// field: IC50; key: Cc1cc(C(=O)N2CC(F)(F)C2)ccc1[C@@H]1CCCN1C(=O)c1cc(Cl)c(O)cc1O ; value = 1.4

// field: IC50; key: O=C(OCc1ccccc1)[C@H]1CCCN1C(=O)c1ccc(O)cc1O ; value = 0.5

***
// field: IC50; key: Cc1ccccc1[C@H]1CCCN1C(=O)c1ccc(O)cc1O ; value = 0.06

// field: IC50; key: COc1ccccc1C1CCCN1C(=O)c1ccc(O)cc1O (configuration not stated) ; value = 0.4

// field: IC50; key: Cc1ccccc1C1CCCN1C(=O)c1ccc(O)cc1O (racemic) ; value = 0.1

// field: IC50; key: Cc1ccccc1C1CCCN1C(=O)c1cc(Cl)c(O)cc1O (configuration not stated) ; value = 0.02

// field: IC50; key: O=C(c1ccc(O)cc1O)N1CCCC1c1ccccc1 (configuration not stated) ; value = 0.3
